Where do the numbers come from? From ChEMBL document CHEMBL2424622.

# experimental_target: Tyrosine-protein kinase JAK2 (Homo sapiens) (UniProt O60674)
# Sequence (O60674 whole entry, the tested form may be a part): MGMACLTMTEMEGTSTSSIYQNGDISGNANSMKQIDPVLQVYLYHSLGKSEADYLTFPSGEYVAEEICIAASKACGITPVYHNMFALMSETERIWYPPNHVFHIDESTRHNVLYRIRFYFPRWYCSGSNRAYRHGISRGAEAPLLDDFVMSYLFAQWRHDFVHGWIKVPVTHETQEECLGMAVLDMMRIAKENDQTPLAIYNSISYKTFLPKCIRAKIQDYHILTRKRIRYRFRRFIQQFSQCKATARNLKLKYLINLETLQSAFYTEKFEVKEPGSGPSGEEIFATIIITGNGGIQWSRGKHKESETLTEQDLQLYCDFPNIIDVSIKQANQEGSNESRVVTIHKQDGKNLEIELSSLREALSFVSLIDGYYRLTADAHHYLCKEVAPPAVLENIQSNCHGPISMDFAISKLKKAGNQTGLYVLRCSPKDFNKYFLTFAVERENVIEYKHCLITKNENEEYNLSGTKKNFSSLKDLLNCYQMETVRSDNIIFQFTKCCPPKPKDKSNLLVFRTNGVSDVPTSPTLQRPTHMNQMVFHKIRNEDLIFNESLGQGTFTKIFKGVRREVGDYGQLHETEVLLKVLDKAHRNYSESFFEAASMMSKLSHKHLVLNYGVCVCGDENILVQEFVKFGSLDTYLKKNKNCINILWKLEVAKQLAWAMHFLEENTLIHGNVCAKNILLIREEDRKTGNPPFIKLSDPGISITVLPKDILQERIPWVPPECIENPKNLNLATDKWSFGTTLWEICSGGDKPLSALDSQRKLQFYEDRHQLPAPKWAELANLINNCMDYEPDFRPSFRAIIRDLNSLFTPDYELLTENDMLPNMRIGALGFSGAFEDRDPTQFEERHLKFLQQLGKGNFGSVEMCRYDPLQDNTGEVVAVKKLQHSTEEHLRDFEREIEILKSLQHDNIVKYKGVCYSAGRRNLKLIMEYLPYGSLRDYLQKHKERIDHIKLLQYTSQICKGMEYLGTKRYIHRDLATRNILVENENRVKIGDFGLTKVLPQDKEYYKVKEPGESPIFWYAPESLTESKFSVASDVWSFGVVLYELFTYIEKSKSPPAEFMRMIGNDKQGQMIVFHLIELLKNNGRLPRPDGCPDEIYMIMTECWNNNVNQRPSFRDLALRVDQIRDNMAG
# protocol_description: Competitive binding affinity to JAK2 kinase domain 2 (unknown origin) at 10 uM in presence of ATP relative to control
quantity_kind: inhibition

Some molecules with recorded inhibition:
O[C@H]1CC[C@H](Nc2nccc(-n3ccc4ccccc43)n2)CC1; < 50%
O[C@H]1CC[C@H](Nc2nccc(-n3nnc4ccccc43)n2)CC1; 72%
O=C([C@H]1CC[C@H](Nc2nccc(-n3nnc4ccccc43)n2)CC1)N1CCOCC1; < 50%
O[C@H]1CC[C@H](Nc2nccc(-c3n[nH]c4ccccc34)n2)CC1; 96%
O[C@H]1CC[C@H](Nc2nccc(-n3ncc4ccccc43)n2)CC1; < 50%

Turning to the following molecule.
// query inhibition for N[C@H]1CC[C@H](Nc2nccc(-n3nnc4ccccc43)n2)CC1 ?
// result < 50%

* * *

# System: Tyrosine-protein kinase ABL1 (Homo sapiens), P00519 [Y253F]
# protocol_description: Competitive binding affinity to ABL1 Y253F mutant (unknown origin) at 10 uM in presence of ATP relative to control
// values below are reported inhibition

Some compounds with recorded inhibition:
O[C@H]1CC[C@H](Nc2nccc(-c3n[nH]c4ccccc34)n2)CC1; < 50%
O[C@H]1CC[C@H](Nc2nccc(-n3ccc4ccccc43)n2)CC1; < 50%
O[C@H]1CC[C@H](Nc2nccc(-n3nnc4ccccc43)n2)CC1; 66%

// query inhibition for O[C@H]1CC[C@H](Nc2nccc(-n3ncc4ccccc43)n2)CC1 ?
// result < 50%

* * *

# protocol_description: Fraction unbound in human plasma
# Assay type: ADME, cell-free
quantity_kind: fraction unbound
// no unit string in output, number only

// query fraction unbound for CS(=O)(=O)CCCOc1cccc2c1ccn2-c1ccnc(N[C@H]2CC[C@H](C(=O)N3CCC(O)CC3)CC2)n1 ?
// result 0.05

* * *

# experimental_target: Tyrosine-protein kinase receptor UFO (Homo sapiens) (UniProt P30530)
# Sequence (P30530 whole entry): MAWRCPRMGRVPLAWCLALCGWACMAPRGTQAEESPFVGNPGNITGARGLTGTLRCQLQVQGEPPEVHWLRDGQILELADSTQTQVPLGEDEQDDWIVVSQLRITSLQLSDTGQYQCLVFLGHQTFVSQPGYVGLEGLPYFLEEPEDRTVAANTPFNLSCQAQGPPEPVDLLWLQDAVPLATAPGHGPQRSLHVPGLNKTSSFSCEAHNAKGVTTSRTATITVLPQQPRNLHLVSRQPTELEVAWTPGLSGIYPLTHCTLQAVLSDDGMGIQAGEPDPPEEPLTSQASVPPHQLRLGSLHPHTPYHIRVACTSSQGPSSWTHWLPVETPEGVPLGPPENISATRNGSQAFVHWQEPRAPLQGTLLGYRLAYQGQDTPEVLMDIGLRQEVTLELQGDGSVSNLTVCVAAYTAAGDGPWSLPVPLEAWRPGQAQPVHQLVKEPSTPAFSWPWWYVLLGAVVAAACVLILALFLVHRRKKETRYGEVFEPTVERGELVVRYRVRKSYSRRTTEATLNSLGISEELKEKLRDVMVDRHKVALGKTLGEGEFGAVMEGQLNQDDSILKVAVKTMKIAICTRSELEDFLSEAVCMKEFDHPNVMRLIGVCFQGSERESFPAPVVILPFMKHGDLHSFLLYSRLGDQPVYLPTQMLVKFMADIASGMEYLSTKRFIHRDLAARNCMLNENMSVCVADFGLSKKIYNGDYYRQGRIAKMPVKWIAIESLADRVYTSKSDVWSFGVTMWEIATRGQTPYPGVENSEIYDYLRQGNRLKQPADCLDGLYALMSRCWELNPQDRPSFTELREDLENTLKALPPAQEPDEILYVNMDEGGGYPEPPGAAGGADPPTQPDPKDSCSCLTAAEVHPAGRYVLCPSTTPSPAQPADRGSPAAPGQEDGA
# protocol_description: Competitive binding affinity to AXL (unknown origin) at 10 uM in presence of ATP relative to control
quantity_kind: inhibition (%)

O[C@H]1CC[C@H](Nc2nccc(-c3n[nH]c4ccccc34)n2)CC1; 100
O[C@H]1CC[C@H](Nc2nccc(-n3ncc4ccccc43)n2)CC1; 93

* * *

# protocol_description: Half life in Hanover-Wistar rat at 0.5 mg/kg, iv
# Type: ADME, organism-based
# Set-up: dose 0.5 mg/kg, route intravenous
# test_parameters: in vivo
quantity_kind: half-life (h)
Only the number, expressed in h, is required.

// query half-life for CS(=O)(=O)CCCOc1cccc2c1ccn2-c1ccnc(N[C@H]2CC[C@H](C(=O)N3CCC(O)CC3)CC2)n1 ?
// result 2.6

* * *

# experimental_target: Cyclin-dependent kinase 1/cyclin B1 (Homo sapiens, UniProt P06493)
# protocol_description: Inhibition of human recombinant human CDK1/GST-tagged cyclin B expressed in baculovirus infected insect cells assessed as inhibition of 6XHis-tagged retinoblastoma protein (386 to 928) phosphorylation after 30 mins by scintillation counting analysis in presence of [gamma-33P]-ATP
quantity_kind: IC50 (nM)
Only the number, expressed in nM, is required.

// query Lab note: need IC50 with Cyclin-dependent kinase 1/cyclin B1 (Homo sapiens, UniProt P06493) for entry CS(=O)(=O)N[C@H]1CC[C@H](Nc2nccc(-n3nnc4ccccc43)n2)CC1 , please look it up.
// result 1520

* * *

# experimental_target: Casein kinase I isoform epsilon (Homo sapiens) (UniProt P49674)
# Sequence (P49674 whole entry, looked up, canonical isoform): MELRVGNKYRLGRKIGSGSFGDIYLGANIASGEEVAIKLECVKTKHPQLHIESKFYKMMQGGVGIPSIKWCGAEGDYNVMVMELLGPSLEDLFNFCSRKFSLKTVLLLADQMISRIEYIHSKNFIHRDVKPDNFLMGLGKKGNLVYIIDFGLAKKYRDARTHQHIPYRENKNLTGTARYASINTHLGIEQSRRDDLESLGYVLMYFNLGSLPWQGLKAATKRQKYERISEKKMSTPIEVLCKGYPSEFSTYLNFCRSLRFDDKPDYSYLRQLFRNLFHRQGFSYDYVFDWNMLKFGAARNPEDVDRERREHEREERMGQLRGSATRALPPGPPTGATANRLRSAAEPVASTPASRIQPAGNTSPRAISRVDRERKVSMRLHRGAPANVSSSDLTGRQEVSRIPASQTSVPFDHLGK
# protocol_description: Competitive binding affinity to CSNK1E (unknown origin) at 10 uM in presence of ATP relative to control
quantity_kind: inhibition (%)

O[C@H]1CC[C@H](Nc2nccc(-c3n[nH]c4ccccc34)n2)CC1; 100
O[C@H]1CC[C@H](Nc2nccc(-n3nnc4ccccc43)n2)CC1; 100
N[C@H]1CC[C@H](Nc2nccc(-n3nnc4ccccc43)n2)CC1; 100
O=C([C@H]1CC[C@H](Nc2nccc(-n3nnc4ccccc43)n2)CC1)N1CCOCC1; 95
O[C@H]1CC[C@H](Nc2nccc(-n3ccc4ccccc43)n2)CC1; 85
O[C@H]1CC[C@H](Nc2nccc(-n3ncc4ccccc43)n2)CC1; 94

* * *

# experimental_target: Cyclin-dependent kinase 5 (Homo sapiens)
# protocol_description: Competitive binding affinity to CDK5 (unknown origin) at 10 uM in presence of ATP relative to control
quantity_kind: inhibition (%)

N[C@H]1CC[C@H](Nc2nccc(-n3nnc4ccccc43)n2)CC1; 90
O[C@H]1CC[C@H](Nc2nccc(-c3n[nH]c4ccccc34)n2)CC1; 95
O[C@H]1CC[C@H](Nc2nccc(-n3nnc4ccccc43)n2)CC1; 74

* * *

# experimental_target: Receptor-interacting serine/threonine-protein kinase 2 (Homo sapiens) (UniProt O43353)
# Sequence (O43353 whole entry): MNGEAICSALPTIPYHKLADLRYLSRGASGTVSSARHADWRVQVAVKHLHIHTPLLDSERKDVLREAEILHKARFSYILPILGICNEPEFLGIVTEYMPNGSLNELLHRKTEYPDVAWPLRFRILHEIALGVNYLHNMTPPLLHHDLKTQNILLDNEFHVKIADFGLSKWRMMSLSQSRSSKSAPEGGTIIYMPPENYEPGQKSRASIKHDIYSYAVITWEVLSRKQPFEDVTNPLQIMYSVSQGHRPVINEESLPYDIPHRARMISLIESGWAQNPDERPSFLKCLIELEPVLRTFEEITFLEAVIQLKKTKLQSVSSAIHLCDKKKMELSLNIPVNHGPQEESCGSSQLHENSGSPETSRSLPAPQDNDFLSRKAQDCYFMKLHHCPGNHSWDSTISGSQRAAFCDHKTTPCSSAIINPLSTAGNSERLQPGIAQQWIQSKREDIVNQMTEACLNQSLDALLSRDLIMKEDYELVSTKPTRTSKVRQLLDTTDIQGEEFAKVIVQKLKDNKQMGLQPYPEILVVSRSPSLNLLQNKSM
# protocol_description: Competitive binding affinity to RIPK2 (unknown origin) at 10 uM in presence of ATP relative to control
// values below are reported inhibition

O[C@H]1CC[C@H](Nc2nccc(-n3ccc4ccccc43)n2)CC1; < 50%
N[C@H]1CC[C@H](Nc2nccc(-n3nnc4ccccc43)n2)CC1; < 50%
O[C@H]1CC[C@H](Nc2nccc(-n3ncc4ccccc43)n2)CC1; < 50%
O=C([C@H]1CC[C@H](Nc2nccc(-n3nnc4ccccc43)n2)CC1)N1CCOCC1; < 50%
O[C@H]1CC[C@H](Nc2nccc(-n3nnc4ccccc43)n2)CC1; 66%

Turning to the following compound.
// query inhibition for O[C@H]1CC[C@H](Nc2nccc(-c3n[nH]c4ccccc34)n2)CC1 ?
// result < 50%

* * *

# experimental_target: Mitogen-activated protein kinase 8 (Homo sapiens)
# Sequence (P45983 whole entry): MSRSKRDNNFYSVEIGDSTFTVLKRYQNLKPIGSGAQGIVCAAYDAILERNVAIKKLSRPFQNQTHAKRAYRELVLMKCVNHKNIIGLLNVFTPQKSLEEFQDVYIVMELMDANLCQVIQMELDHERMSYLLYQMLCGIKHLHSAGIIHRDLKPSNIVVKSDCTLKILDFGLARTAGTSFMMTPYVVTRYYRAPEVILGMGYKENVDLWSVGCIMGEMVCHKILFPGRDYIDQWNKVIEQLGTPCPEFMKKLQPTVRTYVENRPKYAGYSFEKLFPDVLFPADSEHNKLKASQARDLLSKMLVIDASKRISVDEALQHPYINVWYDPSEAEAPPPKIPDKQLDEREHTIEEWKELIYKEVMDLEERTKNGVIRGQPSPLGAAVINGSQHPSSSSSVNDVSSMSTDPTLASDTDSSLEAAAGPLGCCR
quantity_kind: IC50 (nM)

Some molecules with recorded IC50:
CS(=O)(=O)CCCOc1cccc2c1ccn2-c1ccnc(N[C@H]2CC[C@H](C(=O)N3CCC(F)(F)CC3)CC2)n1; 16
O[C@H]1CC[C@H](Nc2nccc(-n3ncc4ccccc43)n2)CC1; 55
OCCCOc1cccc2c1cnn2-c1ccnc(N[C@H]2CC[C@H](O)CC2)n1; 24

I = c1ccc2c(c1)nnn2-c1ccnc(NC2CCCCC2)n1
II = CCCOc1cccc2c1cnn2-c1ccnc(N[C@H]2CC[C@H](O)CC2)n1
III = O=C([C@H]1CC[C@H](Nc2nccc(-n3nnc4ccccc43)n2)CC1)N1CCOCC1
IV = CS(=O)(=O)N[C@H]1CC[C@H](Nc2nccc(-n3nnc4ccccc43)n2)CC1
V = O[C@H]1CC[C@H](Nc2nccc(-c3nnc4ccccn34)n2)CC1
// query Please put the entries in order of rising IC50. Give the labels in the order specified.
// result II, IV, III, I, V
(II: 12 nM, IV: 24 nM, III: 63 nM, I: 100 nM, V: 570 nM)

* * *

# protocol_description: Intrinsic permeability from apical to basolateral side in human Caco2 cells at 10 uM
# Type: ADME, cell-based
# test_parameters: Caco-2, read-out: permeability
quantity_kind: Papp A→B at 10 µM (×10⁻⁶ cm/s)
Only the number, expressed in ×10⁻⁶ cm/s, is required.

// query Papp A→B at 10 µM for CS(=O)(=O)CCCOc1cccc2c1ccn2-c1ccnc(N[C@H]2CC[C@H](C(=O)N3CCC(O)CC3)CC2)n1 ?
// result 0.2

* * *

# Test system: Tyrosine-protein kinase ABL1 (Homo sapiens), P00519 [H396P]
# protocol_description: Competitive binding affinity to ABL1 H396P mutant (unknown origin) at 10 uM in presence of ATP relative to control
// values below are reported inhibition

O[C@H]1CC[C@H](Nc2nccc(-c3n[nH]c4ccccc34)n2)CC1; < 50%

// query inhibition for O[C@H]1CC[C@H](Nc2nccc(-n3nnc4ccccc43)n2)CC1 ?
// result < 50%

// query inhibition for O[C@H]1CC[C@H](Nc2nccc(-n3ncc4ccccc43)n2)CC1 ?
// result < 50%

// query inhibition for O[C@H]1CC[C@H](Nc2nccc(-n3ccc4ccccc43)n2)CC1 ?
// result < 50%

* * *

// values below are reported inhibition
# experimental_target: UniProtKB P27037
# Sequence (P27037 whole entry): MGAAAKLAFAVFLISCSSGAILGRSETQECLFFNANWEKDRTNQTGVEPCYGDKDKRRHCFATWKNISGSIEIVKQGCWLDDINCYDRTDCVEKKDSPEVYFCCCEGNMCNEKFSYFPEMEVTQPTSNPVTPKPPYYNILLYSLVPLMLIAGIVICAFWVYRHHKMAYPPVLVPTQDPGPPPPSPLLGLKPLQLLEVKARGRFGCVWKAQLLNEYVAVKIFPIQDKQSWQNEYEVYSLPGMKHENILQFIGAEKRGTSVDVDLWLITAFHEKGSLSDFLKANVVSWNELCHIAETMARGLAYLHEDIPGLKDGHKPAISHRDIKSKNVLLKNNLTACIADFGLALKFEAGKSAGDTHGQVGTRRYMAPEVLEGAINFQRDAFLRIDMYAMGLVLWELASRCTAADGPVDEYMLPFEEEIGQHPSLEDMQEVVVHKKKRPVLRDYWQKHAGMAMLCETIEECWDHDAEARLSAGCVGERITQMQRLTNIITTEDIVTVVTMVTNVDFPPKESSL
# protocol_description: Competitive binding affinity to ACVR2A (unknown origin) at 10 uM in presence of ATP relative to control

O[C@H]1CC[C@H](Nc2nccc(-c3n[nH]c4ccccc34)n2)CC1; < 50%
O[C@H]1CC[C@H](Nc2nccc(-n3ccc4ccccc43)n2)CC1; < 50%
O[C@H]1CC[C@H](Nc2nccc(-n3nnc4ccccc43)n2)CC1; < 50%

// query inhibition for O[C@H]1CC[C@H](Nc2nccc(-n3ncc4ccccc43)n2)CC1 ?
// result < 50%

* * *

# experimental_target: Non-receptor tyrosine-protein kinase TNK1 (Homo sapiens) (UniProt Q13470)
# Sequence (Q13470 whole entry): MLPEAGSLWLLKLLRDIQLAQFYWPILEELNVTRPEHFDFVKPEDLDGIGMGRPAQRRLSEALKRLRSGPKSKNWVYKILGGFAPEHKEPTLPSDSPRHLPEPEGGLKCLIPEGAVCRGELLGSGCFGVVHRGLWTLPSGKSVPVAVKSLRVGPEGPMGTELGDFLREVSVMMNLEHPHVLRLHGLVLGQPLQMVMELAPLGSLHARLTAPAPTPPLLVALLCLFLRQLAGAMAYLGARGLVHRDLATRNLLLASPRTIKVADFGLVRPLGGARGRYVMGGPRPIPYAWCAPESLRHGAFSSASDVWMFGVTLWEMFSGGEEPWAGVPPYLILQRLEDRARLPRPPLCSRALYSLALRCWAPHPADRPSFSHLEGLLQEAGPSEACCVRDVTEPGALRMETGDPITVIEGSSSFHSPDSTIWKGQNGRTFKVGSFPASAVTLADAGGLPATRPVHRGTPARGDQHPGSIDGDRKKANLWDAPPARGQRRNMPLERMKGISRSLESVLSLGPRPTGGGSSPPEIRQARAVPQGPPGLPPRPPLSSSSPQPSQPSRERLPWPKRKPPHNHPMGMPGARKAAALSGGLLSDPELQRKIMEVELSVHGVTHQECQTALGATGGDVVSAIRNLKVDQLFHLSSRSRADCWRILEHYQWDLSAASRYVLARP
# protocol_description: Competitive binding affinity to TNK1 (unknown origin) at 10 uM in presence of ATP relative to control
// values below are reported inhibition

O[C@H]1CC[C@H](Nc2nccc(-n3nnc4ccccc43)n2)CC1; < 50%
O[C@H]1CC[C@H](Nc2nccc(-c3n[nH]c4ccccc34)n2)CC1; 81%
O[C@H]1CC[C@H](Nc2nccc(-n3ccc4ccccc43)n2)CC1; < 50%

// query inhibition for O[C@H]1CC[C@H](Nc2nccc(-n3ncc4ccccc43)n2)CC1 ?
// result < 50%
